test system: PPP1R12A (Mypt1) exon 24 flanking region; assay: Surveyor nuclease assay on genomic PCR products of transfected HEK293T cells; type: cell-based, human; conditions: constructs tested individually

MOLECULE: sgRNA11: guide RNA, target … (SEQ ID NO: 15); tested cloned in px601 SaCas9 plasmid (nucleic acid) guide: GUUAUGUGUAGCAUUAAUGCAGUUUUAGUACUCUGGAAACAGAAUCUACUAAAACAAGGCAAAAUGCCGUGUUUAUCUCGUCAACUUGUUGGCGAGAUUUUU
genome editing in vitro (in words): effective genome editing
//
MOLECULE: sgRNA5: guide RNA, target … (SEQ ID NO: 9); tested cloned in px601 SaCas9 plasmid (nucleic acid) guide: GCAUUAUUUAUUAAUCUGGGAGUUUUAGUACUCUGGAAACAGAAUCUACUAAAACAAGGCAAAAUGCCGUGUUUAUCUCGUCAACUUGUUGGCGAGAUUUUU
genome editing in vitro (in words): effective genome editing
